These entries and their values trace back to the supplement of paper PMC12042874.

Assign amyloid nucleation score to each entry below.
- Procedure Text: amyloid nucleation score (Sup35N fusion, yeast selection) (log enrichment); library NNK2; higher = more nucleation; inactive = no reads after selection;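 further: zero at mode of non-aggregating sequences after 7 days selection at 30°C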
Number only, please.

The recorded amyloid nucleation score for entry "DWRRWM" equals 0.422

The recorded amyloid nucleation score for entry "YVDGFYNGERWRLVLHVWDL" equals -0.598

The recorded amyloid nucleation score for entry "YIDLLGRVCHYSLGWLCYCM" equals -1.05

The recorded amyloid nucleation score for entry "YSELMFTEVIYTVYYLTFLR" equals -0.797

The recorded amyloid nucleation score for entry "IKFVEPYSFLS" equals 1.32

The recorded amyloid nucleation score for entry "QIDYRLIVGRSG" equals 0.32

The recorded amyloid nucleation score for entry "VSFNGSVGMS" equals -0.907

The recorded amyloid nucleation score for entry "CNFHCPI" equals 2.63

The recorded amyloid nucleation score for entry "AFTLQIHGFSVIVTASLQVS" equals -0.642

The recorded amyloid nucleation score for entry "KPHGGGSRLGCRGKWLTILL" equals 1.29

The recorded amyloid nucleation score for entry "FCTHSQARDQVNSNHTMALL" equals 2.84

The recorded amyloid nucleation score for entry "APFARSCDNWILGIFVFILG" equals 6.12

The recorded amyloid nucleation score for entry "SLEVCLIALDYGIQFLSTSA" equals 0.099

The recorded amyloid nucleation score for entry "CVDTSFCLYARELILCAR" equals -0.121

The recorded amyloid nucleation score for entry "QIVWLHCLFRRFSNGATSDD" equals -0.122

The recorded amyloid nucleation score for entry "SIIVLRLLY" equals 0.523

The recorded amyloid nucleation score for entry "DFGKIGEWDWAGGVYLSAWR" equals -0.137

The recorded amyloid nucleation score for entry "KYGTSIVTHGAVKDAKYCCR" equals 3.44

The recorded amyloid nucleation score for entry "PSHFVGFCAHSYDVGVFMWV" equals 0.077

The recorded amyloid nucleation score for entry "VWEGTGPLEICWFCWGEW" equals 2.5

The recorded amyloid nucleation score for entry "YDYVEGAEPPLGDGCIVVFH" equals -0.451
